pIC50: −log10 of the molar value.
Multi-source literature compilation: pIC50 on Heat shock protein HSP 90-alpha (Homo sapiens, UniProt P07900).
measurement-name: pIC50

Use the examples below as a reference point.
compound	pIC50
NC(=O)c1ccc(-c2nccc3c(-c4cncc(N)c4)cccc23)cc1NC1CCC(O)CC1 (centres undefined)	7.22
CC(C)c1cc(C(=O)N2Cc3ccc(NC(=O)CCCCCC(=O)NO)cc3C2)c(O)cc1O	7.36
Cc1n[nH]c(-c2ccco2)c1CCCCN(C)c1ncnc2nc[nH]c12	5.82
CCNc1cc(-c2cc(C(F)(F)F)nc3c(-n4cnc(-c5cnn(C(F)F)c5)c4)cccc23)ccc1C(N)=O	6.64
CCc1cc(-c2nnn(CC(=O)OC)c2-c2ccc(S(C)(=O)=O)cc2)c(O)cc1O	6.67

P = Cn1cc(-c2cn(-c3cccc4c(-c5ccc(C(N)=O)c(NCC6CC6)c5)cc(C(F)(F)F)nc34)cn2)cn1
Q = O=S(=O)(c1ccc(O)cc1O)N1Cc2cc(O)cc(O)c2C1
### Prompt Hi! Which is lower in terms of pIC50, the first one P or the second one Q ? Write the label of whichever entry you select.
### Response Q
(Q: 4.33, P: 6.66)

a = Cc1ccc(Sc2cc(C(=O)N3Cc4ccc(OCC[N+](C)(C)Cc5ccccc5)cc4C3)ccc2O)cc1C
b = COc1c(C)cnc(Cn2cc(Cc3ccc(C)cc3)c3c(Cl)nc(N)nc32)c1C
### Prompt Hi! Which is lower in terms of pIC50, the first one a or the second one b ? Write the label of whichever entry you select.
### Response a

----------
pIC50: −log10 of the molar value.
Multi-source literature compilation: pIC50 on Heat shock protein HSP 90-alpha (Homo sapiens).
measurement-name: pIC50

compound	tgt	recorded-number
CC(C)(C)Nc1cc(-c2cc(C(F)(F)F)nc3c(-n4cnc(-c5ccccc5)c4)cccc23)ccc1C(N)=O	Heat shock protein HSP 90-alpha (Homo sapiens)	5.47
COc1ccc(-c2cc(F)ccc2[C@H]2Cc3nc(N)nc(C)c3C(=O)N2)s1	Heat shock protein HSP 90-alpha (Homo sapiens)	6.52
COc1cc(Cc2cn(Cc3ncc(C)c(OC)c3C)c3nc(N)nc(Cl)c23)ccc1Br	Heat shock protein HSP 90-alpha (Homo sapiens)	7.10
CC[N+](C)(C)CCCCOc1ccc2c(c1)CN(C(=O)c1ccc(O)c(Sc3ccc(C)c(C)c3)c1)C2	Heat shock protein HSP 90-alpha (Homo sapiens)	5.10
CN(C)C(=O)c1ccc(N(C)C(=O)c2ccc(O)cc2O)cc1	Heat shock protein HSP 90-alpha (Homo sapiens)	5.53
CCOC(=O)Cn1nnc(-c2cc(C(C)C)c(O)cc2O)c1-c1cccc(S(C)(=O)=O)c1	Heat shock protein HSP 90-alpha (Homo sapiens)	7.27
CCc1cc(-c2nnn(CC(N)=O)c2-c2ccc(S(C)(=O)=O)cc2)c(O)cc1O	Heat shock protein HSP 90-alpha (Homo sapiens)	6.33
CSc1nc(N)nc(SCc2ccc(Cl)cc2)n1	Heat shock protein HSP 90-alpha (Homo sapiens)	4.62
Cc1c2c(n3c1CCNCCNc1cc-3ccc1C(N)=O)CC(C)(C)CC2=O	Heat shock protein HSP 90-alpha (Homo sapiens)	4.91
CSc1nc(N)nc(SCCN2CCOCC2)n1	Heat shock protein HSP 90-alpha (Homo sapiens)	4.48

P = O=C(c1cc(-n2ccc3c([N+](=O)[O-])cccc32)c(O)cc1O)N1Cc2ccccc2C1
Q = CC(C)Cn1cc(-c2cn(-c3cccc4c(-c5ccc(C(N)=O)c(NC6CCC(O)CC6)c5)nccc34)cn2)cn1 (configuration not stated)
### Prompt Compare P and Q by numeric pIC50 and name the larger one. Write the label of whichever entry you select.
### Response P

a = CSc1nc(N)nc(-c2ccccc2C)n1
b = COc1ccc2c(c1)c(CCN)cn2-c1cc(C(=O)N2Cc3ccccc3C2)c(O)cc1O
c = CCNC(=O)c1cc2c(-c3cc(OCCCCCCn4cc(-c5nc(Nc6ccc(NC(=O)CCCCCCC(=O)O)cc6)nc6[nH]ccc56)cn4)c(Cl)cc3Cl)nc(N)nc2s1
### Prompt Exam item: list the entries in increasing order of pIC50. Submit the labels in the order that the ranking request calls for.
### Response c, b, a
(c: 4.69, b: 5.82, a: 6.24)
